Experiment: Inhibition of Listeria monocytogenes NADK1
MEASUREMENT_NAME: Ki (µM)
Form entry: value (µM) — number only.

Exam item: Query Ki for Nc1ncnc2c1ncn2[C@@H]1O[C@H](CSSC[C@H]2O[C@@H](n3cnc4c(N)ncnc43)[C@H](O)[C@@H]2O)[C@@H](O)[C@H]1O
Marked response: 20

====

Target: Inosine-5'-monophosphate dehydrogenase 1 (Homo sapiens) (UniProt P20839)
Sequence (P20839 2-514 limits assumed): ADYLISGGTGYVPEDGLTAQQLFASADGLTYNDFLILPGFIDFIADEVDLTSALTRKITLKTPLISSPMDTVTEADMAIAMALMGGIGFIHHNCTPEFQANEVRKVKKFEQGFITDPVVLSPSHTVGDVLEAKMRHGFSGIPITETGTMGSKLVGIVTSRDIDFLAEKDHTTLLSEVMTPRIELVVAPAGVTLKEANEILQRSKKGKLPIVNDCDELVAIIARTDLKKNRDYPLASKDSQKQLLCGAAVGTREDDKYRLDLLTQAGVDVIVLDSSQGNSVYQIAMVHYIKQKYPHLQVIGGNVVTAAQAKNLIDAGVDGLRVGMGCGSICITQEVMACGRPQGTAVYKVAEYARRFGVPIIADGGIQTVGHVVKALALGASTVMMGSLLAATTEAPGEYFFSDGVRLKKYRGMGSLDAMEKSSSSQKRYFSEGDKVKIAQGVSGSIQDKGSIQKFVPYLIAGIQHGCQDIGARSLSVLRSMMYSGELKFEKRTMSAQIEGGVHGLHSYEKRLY
Experiment: Inhibition of human IMPDH1 at 100 uM
The source made the active and inactive calls. The calls are words filed in the database; no cut-off is given here.
MEASUREMENT_NAME: inhibition

• Nc1ncnc2c1ncn2[C@@H]1O[C@H](CSSC[C@H]2O[C@@H](n3cnc4c(N)ncnc43)[C@H](O)[C@@H]2O)[C@@H](O)[C@H]1O = inactive
• Nc1ncnc2c1nc(Br)n2[C@@H]1O[C@H](CSSC[C@H]2O[C@@H](n3c(Br)nc4c(N)ncnc43)[C@H](O)[C@@H]2O)[C@@H](O)[C@H]1O = inactive
• NC(=O)c1csc([C@@H]2O[C@H](CSSC[C@H]3O[C@@H](c4nc(C(N)=O)cs4)[C@H](O)[C@@H]3O)[C@@H](O)[C@H]2O)n1 = inactive
